protocol-description: NCI Yeast Anticancer Drug Screen. Data for the bub3 strain (AID 167)
study-conditions: S. cerevisiae bub3 mutant strain, at 50.0 µM (retest, dose inferred, filed as 5.0), stronger effect = higher value
Compounds without any hit were thinned out: in the full panel of roughly 79,000, 15% have a hit.
measurement-name: growth inhibition (%)
Number only, in %; omit the unit.

Worked cases, answers included:
compound	measurement-name	endpoint-result
C=CC[C@]1(C(C)Cc2ccc(OC)c(OC)c2)C[C@@H](OC)C=CC1=O (stereo partly specified)	growth inhibition	92
CCCCCN(CCCCC)CC(O)c1cccc2cc(Cl)ccc12 (stereo unspecified)	growth inhibition	99
COc1c(Br)c(=O)n(C)c(=O)n1C	growth inhibition	99
O=C(Cc1nc2ccccc2s1)Nc1ccc2ccccc2c1	growth inhibition	99
O=c1c2[nH]c3cccc(Cl)c3c2cnn1-c1ccc(F)cc1	growth inhibition	53

// moving on: another record for growth inhibition
Prompt line: Entry under review: CCN(CC)c1ccc(NC(C(=O)c2ccc(Cl)cc2)c2ccc(Cl)cc2)cc1 (stereo unspecified) . Reported growth inhibition?
Response line: 8
